- target_desc: T1, IR485 construct of human insulin receptor (human, UniProt P06213 28-512)
- T1 construct: The tag was not removed for ITC; Expressed in Lec8 mutant CHO cells; also called insulin mini-receptor IR485; first three domains of IR (L1-CR-L2)
- T1 chain: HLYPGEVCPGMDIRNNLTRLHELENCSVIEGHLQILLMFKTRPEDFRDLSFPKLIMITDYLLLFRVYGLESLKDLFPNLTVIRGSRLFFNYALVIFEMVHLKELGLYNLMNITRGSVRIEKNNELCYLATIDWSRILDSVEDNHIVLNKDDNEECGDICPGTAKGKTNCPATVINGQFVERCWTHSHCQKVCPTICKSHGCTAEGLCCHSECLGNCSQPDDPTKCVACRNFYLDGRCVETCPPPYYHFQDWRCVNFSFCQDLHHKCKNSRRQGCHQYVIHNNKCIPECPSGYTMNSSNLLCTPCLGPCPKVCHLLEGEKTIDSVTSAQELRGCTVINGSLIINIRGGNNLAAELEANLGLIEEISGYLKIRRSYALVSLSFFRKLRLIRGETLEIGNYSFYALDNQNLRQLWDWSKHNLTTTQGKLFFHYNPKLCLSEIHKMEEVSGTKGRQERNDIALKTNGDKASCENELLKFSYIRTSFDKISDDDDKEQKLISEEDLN
- measurement_protocol: ITC, 25 °C, S519C16 titrated into IR485 pre-mixed with a 10-fold molar ratio of IR αCT peptide (competitor); apparent Kd; IR485 in the presence of a 10-fold molar ratio of IR αCT peptide
measured_endpoint: Kd (nM)
Numbers only, in nM.

So what's the measured Kd for this one? GSLDESFYDWFERQLG (Synthetic peptide, AusPep, >90% purity; also called Site 1 peptide, the 16 C-terminal residues of S519) [S519C16 peptide]
16

Recorded values, source patent US20140154817A1.
